// provenance: patent EP2658867B1

ASSAYED_TARGET: T1, integrin αVβ3 (UniProt P06756 31-992; P05106 27-718)
T1 construct: Coated on the ELISA plate
T1 sequence (P06756 31-992, chain 1 of 2): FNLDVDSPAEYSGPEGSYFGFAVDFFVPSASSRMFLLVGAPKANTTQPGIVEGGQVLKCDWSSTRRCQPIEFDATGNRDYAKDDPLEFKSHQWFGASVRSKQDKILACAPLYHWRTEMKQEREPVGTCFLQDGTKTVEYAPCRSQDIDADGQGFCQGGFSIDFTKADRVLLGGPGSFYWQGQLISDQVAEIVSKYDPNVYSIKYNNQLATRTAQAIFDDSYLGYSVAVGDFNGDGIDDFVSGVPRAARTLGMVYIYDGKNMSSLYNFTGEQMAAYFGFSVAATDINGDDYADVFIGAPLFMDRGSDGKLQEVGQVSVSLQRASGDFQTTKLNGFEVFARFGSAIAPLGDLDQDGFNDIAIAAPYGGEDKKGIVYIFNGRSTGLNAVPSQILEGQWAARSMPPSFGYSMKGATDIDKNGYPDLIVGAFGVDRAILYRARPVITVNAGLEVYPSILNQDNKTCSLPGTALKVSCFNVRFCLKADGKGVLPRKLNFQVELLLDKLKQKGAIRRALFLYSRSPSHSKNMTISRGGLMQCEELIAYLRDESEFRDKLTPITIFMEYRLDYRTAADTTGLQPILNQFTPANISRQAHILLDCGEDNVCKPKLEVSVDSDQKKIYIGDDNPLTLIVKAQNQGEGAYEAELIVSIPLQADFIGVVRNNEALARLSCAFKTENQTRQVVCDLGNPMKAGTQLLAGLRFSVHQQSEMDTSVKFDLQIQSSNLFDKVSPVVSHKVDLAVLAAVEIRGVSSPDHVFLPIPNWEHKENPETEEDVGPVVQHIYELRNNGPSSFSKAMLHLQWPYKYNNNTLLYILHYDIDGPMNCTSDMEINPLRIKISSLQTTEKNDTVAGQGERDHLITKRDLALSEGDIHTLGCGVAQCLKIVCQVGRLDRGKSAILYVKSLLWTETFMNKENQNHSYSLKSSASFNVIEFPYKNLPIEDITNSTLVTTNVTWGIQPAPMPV
T1 sequence (P05106 27-718, chain 2 of 2): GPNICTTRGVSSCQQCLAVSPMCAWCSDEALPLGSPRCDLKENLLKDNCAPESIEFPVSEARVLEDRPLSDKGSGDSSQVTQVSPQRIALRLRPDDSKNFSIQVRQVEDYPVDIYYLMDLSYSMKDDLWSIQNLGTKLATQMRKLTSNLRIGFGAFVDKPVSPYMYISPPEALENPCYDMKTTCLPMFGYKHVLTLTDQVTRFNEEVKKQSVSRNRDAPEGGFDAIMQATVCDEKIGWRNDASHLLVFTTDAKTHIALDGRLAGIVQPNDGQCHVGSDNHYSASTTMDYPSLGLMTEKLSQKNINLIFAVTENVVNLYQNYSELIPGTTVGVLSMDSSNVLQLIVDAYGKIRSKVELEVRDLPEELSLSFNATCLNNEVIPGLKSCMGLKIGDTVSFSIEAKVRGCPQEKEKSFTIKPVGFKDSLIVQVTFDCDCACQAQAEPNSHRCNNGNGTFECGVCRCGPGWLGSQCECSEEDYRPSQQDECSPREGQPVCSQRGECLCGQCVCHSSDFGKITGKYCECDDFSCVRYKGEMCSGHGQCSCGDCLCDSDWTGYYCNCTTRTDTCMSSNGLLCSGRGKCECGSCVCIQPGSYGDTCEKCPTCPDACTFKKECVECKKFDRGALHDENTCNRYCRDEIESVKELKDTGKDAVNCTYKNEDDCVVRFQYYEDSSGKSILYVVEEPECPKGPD
METHOD_DESCRIPTION: phage ELISA, integrin coated, anti-M13-HRP
Labelling field: enter y if recorded signal is less than 1 OD. Enter n if it equals or exceeds that cut-off.

>  <BINDER>
M13 phage pKK96 displaying MICA α3 domain with loop 5.1 in loop 1 (designed binder, not shown: large carriers) TVPPMVNVTVTRGDTFTQSVTCRASGFYPWNITLSWRQDGVSLSHDTQQWGDVLPDGNGTYQTWVATRICQGEEQRFTCYMEHSGNHSTHPVPSGK

>  <DISCRETE_LABEL>
n

$$$$
>  <BINDER>
M13 phage pKK138 displaying MICA α3 domain with extended 5.1sp in loop 1 and extended 5.3sp in loop 3 (designed binder, not shown: large carriers) TVPPMVNVTSGGSGGGSVTRGDTFTQSSGGSGGGVTCRASGFYPWNITLSWRQDGVSLSHDTQQWGDVLPDGNGTYQTWVATRISGGSGGGSHLARGDDLTYSGGSGGGCYMEHSGNHSTHPVPSGK

>  <DISCRETE_LABEL>
y

$$$$
>  <BINDER>
M13 phage pKK101 displaying MICA α3 domain with extended loop 3.3sp in loop 1 (designed binder, not shown: large carriers) TVPPMVNVTSGGSGGGSRVPRGDSDLTSGGSGGGVTCRASGFYPWNITLSWRQDGVSLSHDTQQWGDVLPDGNGTYQTWVATRICQGEEQRFTCYMEHSGNHSTHPVPSGK

>  <DISCRETE_LABEL>
n

$$$$
>  <BINDER>
M13 phage pKK105 displaying MICA α3 domain with extended loop 3.3sp in loop 3 (designed binder, not shown: large carriers) TVPPMVNVTRSEASEGNITVTCRASGFYPWNITLSWRQDGVSLSHDTQQWGDVLPDGNGTYQTWVATRISGGSGGGSRVPRGDSDLTSGGSGGGCYMEHSGNHSTHPVPSGK

>  <DISCRETE_LABEL>
n

$$$$
>  <BINDER>
M13 phage pKK110 displaying MICA α3 domain with tight T-5.1 in loop 1 (designed binder, not shown: large carriers) TVPPMVNVTRGDTFTQSCRASGFYPWNITLSWRQDGVSLSHDTQQWGDVLPDGNGTYQTWVATRICQGEEQRFTCYMEHSGNHSTHPVPSGK

>  <DISCRETE_LABEL>
n

$$$$
>  <BINDER>
M13 phage pKK111 displaying MICA α3 domain with tight T-5.3 in loop 1 (designed binder, not shown: large carriers) TVPPMVNHLARGDDLTYCRASGFYPWNITLSWRQDGVSLSHDTQQWGDVLPDGNGTYQTWVATRICQGEEQRFTCYMEHSGNHSTHPVPSGK

>  <DISCRETE_LABEL>
y

$$$$
>  <BINDER>
M13 phage pKK139 displaying MICA α3 domain with extended 5.1sp in loop 1 and extended 5.1spNH in loop 3 (designed binder, not shown: large carriers) TVPPMVNVTSGGSGGGSVTRGDTFTQSSGGSGGGVTCRASGFYPWNITLSWRQDGVSLSHDTQQWGDVLPDGNGTYQTWVATRISGGSGGGSVTRGDTFTQSSGGSGGGCYMEHSGNHSTHPVPSGK

>  <DISCRETE_LABEL>
n

$$$$

Does the reported signal of M13 phage pKK93 displaying MICA α3 domain with loop 3.2 in loop 1 (designed binder, not shown: large carriers) TVPPMVNVTRTSRGDHPRTQVTCRASGFYPWNITLSWRQDGVSLSHDTQQWGDVLPDGNGTYQTWVATRICQGEEQRFTCYMEHSGNHSTHPVPSGK stay below 1 OD? y
